system: ACHN; assay: NCI tumour cell line growth inhibition, 48 h
Activity calls are given as the source filed them. No stated cut-off is given here; in the data, active = GI50 up to about 1.1 µM and inactive = higher.
What GI50 was measured for each of the following?

Identify measured GI50 obtained with ACHN for COC(=O)C(CC(C)=O)CS(=O)(=O)CC(=O)C(=O)Nc1cccc([N+](=O)[O-])c1 (stereo unspecified) .
> 100 µM (inactive)

Identify measured GI50 obtained with ACHN for Cc1nnc(Nc2ccc(Cl)cc2)o1 .
> 10 µM (inactive)

Identify measured GI50 obtained with ACHN for CC1C(=O)N(c2ccccc2)NC12CCCc1ccccc12 (stereo unspecified) .
> 100 µM (inactive)

Identify measured GI50 obtained with ACHN for Cc1cc(-c2nc3cccc(F)c3s2)ccc1N .
> 74.1 µM (inactive)

Record GI50 for all entries; do not skip any.
1. COc1cc(Cc2cc3c(c(C(=O)O)c2Br)OCO3)cc(OC)c1OC
2. CN(C)c1ccc(/C=C(\C#N)c2nc(-c3cc4ccccc4oc3=O)cs2)cc1

["> 100 µM (inactive)", "13.3 µM (inactive)"]
